For Cytochrome P450 2C9 (Homo sapiens), measured IC50 is reported for the entries below.

[[record]]
chemical_string = "COc1cc2c(cc1OC)CN(CCc1ccc(NC(=O)c3cc(OC)c(OC)cc3NC(=O)c3cnc4ccccc4c3)cc1)CC2"
measurement = "7.1 µM"


Here's the next entry for you.
## Input Data request, read-out IC50, for `COc1ccc(CN2CCN(c3ccc(NC(=O)c4ccccc4NC(=O)c4cnc5ccccc5c4)cc3)CC2)cc1OC`
## Output > 10 µM

###

ASSAY SUMMARY: Growth inhibition of human CEM/VLB500 cells after 3 days by resazurin assay
Assay type: functional
CONDITION: CEM/VLB500, 72 h
ASSAY ENDPOINT: GI50

In the examples that follow, each entry is paired with its recorded GI50.
[[record]]
compound = "COc1ccc(CCN2CCC[C@@H]2CNC(=O)c2ccccc2NC(=O)c2cnc3ccccc3c2)cc1OC"
measurement = "> 15 µM"

[[record]]
compound = "O=C(Nc1ccccc1C(=O)N[C@@H]1CCCC[C@@H]1N1CCN(c2ccccc2)CC1)c1cnc2ccccc2c1 (racemic)"
measurement = "11.5 µM"

[[record]]
compound = "COc1ccc(CN2CCN(c3ccc(NC(=O)c4cc(OC)c(OC)cc4NC(=O)c4cnc5ccccc5c4)cc3)CC2)cc1OC"
measurement = "≥ 15 µM"

[[record]]
compound = "COc1ccc(CCN2CCC[C@H]2CNC(=O)c2ccccc2NC(=O)c2cnc3ccccc3c2)cc1OC"
measurement = "> 15 µM"

[[record]]
compound = "COc1ccc(CN2CCN(c3ccc(NC(=O)c4ccccc4NC(=O)c4cnc5ccccc5c4)cc3)CC2)cc1OC"
measurement = "> 15 µM"

[[record]]
compound = "COc1cc2c(cc1OC)CN(CCc1ccc(NC(=O)c3cc(OC)c(OC)cc3NC(=O)c3cnc4ccccc4c3)cc1)CC2"
measurement = "13.5 µM"


## Input Data request, read-out GI50, for `COc1ccc(CCN(C)CCC[C@@](C#N)(c2ccc(OC)c(OC)c2)C(C)C)cc1OC`
## Output > 15 µM

###

TEST TARGET: Cytochrome P450 2A6 (Homo sapiens)
Sequence (P11509 whole entry): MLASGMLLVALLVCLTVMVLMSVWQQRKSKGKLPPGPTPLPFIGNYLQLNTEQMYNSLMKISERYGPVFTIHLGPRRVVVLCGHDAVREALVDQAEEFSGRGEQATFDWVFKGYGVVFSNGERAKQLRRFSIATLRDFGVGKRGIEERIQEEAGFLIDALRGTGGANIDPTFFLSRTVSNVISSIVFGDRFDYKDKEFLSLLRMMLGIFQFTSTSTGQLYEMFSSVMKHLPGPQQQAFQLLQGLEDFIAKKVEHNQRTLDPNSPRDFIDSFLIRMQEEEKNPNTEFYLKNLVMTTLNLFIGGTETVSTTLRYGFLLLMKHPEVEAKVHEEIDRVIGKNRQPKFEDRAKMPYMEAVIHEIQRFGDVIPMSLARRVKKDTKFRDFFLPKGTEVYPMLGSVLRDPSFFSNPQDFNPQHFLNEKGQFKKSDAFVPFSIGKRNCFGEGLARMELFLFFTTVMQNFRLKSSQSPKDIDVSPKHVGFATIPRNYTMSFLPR
pIC50: −log10 of the molar value.
ASSAY ENDPOINT: pIC50

## Input Data request, read-out pIC50, for `COc1cc2c(cc1OC)CN(CCc1ccc(NC(=O)c3cc(OC)c(OC)cc3NC(=O)c3cnc4ccccc4c3)cc1)CC2`
## Output < 4.00

These measurements were taken from ChEMBL document CHEMBL1147947.
